Data origin: ChEMBL document CHEMBL4630908

assayed_system: ATPase family AAA domain-containing protein 2 (Homo sapiens, UniProt Q6PL18)
Sequence (Q6PL18 whole entry, the tested form may be a part): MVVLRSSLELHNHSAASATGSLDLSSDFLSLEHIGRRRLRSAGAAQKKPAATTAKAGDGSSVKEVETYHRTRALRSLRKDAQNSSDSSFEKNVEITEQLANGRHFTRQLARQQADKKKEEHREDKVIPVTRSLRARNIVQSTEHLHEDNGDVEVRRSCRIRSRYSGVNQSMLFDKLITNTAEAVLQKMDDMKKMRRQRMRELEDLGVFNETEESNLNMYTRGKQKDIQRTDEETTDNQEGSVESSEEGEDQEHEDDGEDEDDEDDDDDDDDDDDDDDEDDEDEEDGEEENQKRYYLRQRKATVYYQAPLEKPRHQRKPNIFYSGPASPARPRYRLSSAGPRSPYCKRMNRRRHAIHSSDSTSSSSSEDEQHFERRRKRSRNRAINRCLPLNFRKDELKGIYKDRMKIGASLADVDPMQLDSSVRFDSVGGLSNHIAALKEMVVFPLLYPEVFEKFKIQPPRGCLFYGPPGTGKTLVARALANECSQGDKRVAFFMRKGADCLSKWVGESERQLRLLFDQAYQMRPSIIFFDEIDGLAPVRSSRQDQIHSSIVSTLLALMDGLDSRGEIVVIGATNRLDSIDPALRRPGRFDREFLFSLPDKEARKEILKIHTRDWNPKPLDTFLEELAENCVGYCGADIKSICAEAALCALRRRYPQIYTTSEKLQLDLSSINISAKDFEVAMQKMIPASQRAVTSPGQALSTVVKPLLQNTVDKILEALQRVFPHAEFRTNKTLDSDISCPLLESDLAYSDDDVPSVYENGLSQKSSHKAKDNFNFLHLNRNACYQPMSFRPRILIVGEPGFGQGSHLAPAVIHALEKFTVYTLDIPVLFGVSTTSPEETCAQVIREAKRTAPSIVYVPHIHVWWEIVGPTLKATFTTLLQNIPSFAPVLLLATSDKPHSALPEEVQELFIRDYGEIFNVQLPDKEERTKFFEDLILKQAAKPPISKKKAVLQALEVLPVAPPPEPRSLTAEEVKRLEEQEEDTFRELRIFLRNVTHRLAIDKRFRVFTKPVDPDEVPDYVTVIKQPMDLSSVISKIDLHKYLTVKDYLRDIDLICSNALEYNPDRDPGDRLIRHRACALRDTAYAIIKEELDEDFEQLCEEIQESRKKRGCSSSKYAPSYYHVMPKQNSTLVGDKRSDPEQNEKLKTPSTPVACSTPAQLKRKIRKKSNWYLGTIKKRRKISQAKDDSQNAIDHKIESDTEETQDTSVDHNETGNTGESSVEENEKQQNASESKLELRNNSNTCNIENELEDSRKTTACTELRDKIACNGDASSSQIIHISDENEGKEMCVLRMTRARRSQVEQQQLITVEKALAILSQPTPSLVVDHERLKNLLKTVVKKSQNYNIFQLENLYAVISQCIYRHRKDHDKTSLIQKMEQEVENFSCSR
assay_details: ATAD2A DiscoverX BROMOscan
observable: Kd
Hi, when you answer, please include the unit after the number. Thanks!

Write Kd of `CC(=O)Nc1c(F)cc(C(=O)N[C@H]2CC[C@H](O)CC2)cc1O[C@@H](C)c1ccccc1` ; system used: ATPase family AAA domain-containing protein 2 (Homo sapiens, UniProt Q6PL18)
30 µM

----------
assayed_system: Transcription initiation factor TFIID subunit 1-like (Homo sapiens, UniProt Q8IZX4)
assay_details: TAF1L(2) DiscoverX BROMOscan
observable: Kd (µM)
The answer is to be given in µM; state only the numeric part.

// fetch Kd; item: CC(=O)Nc1c(F)cc(C(=O)N[C@H]2CC[C@H](O)CC2)cc1O[C@@H](C)c1ccccc1 [GSK046] ; system: Transcription initiation factor TFIID subunit 1-like (Homo sapiens, UniProt Q8IZX4)
30

----------
assayed_system: Bromodomain-containing protein 3 (Homo sapiens)
Sequence (Q15059 whole entry): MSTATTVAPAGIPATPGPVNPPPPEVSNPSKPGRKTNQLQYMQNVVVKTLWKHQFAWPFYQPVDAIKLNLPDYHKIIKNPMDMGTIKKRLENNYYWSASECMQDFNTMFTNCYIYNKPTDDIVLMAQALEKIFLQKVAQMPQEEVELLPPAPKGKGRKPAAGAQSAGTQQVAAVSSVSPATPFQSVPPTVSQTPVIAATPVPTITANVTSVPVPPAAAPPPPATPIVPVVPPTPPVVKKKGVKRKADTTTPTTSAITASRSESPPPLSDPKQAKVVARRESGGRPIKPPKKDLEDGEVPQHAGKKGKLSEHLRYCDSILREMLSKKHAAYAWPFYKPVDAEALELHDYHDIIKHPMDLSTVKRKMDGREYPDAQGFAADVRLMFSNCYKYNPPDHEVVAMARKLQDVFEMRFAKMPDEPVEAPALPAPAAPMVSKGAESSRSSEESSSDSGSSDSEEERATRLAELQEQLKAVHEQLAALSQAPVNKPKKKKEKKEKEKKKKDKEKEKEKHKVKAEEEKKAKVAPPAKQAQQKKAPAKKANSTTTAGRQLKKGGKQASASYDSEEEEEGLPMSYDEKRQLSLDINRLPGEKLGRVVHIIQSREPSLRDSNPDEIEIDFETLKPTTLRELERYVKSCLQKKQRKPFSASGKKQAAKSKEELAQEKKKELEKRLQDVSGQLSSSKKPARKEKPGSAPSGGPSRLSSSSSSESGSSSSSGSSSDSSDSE
assay_details: BRD3(2) DiscoverX BROMOscan
observable: Kd

Kindly indicate its recorded Kd. Item: CC(=O)Nc1c(F)cc(C(=O)N[C@H]2CC[C@H](O)CC2)cc1O[C@@H](C)c1ccccc1 [GSK046]
33 nM

----------
assayed_system: Bromodomain and WD repeat-containing protein 1 (Homo sapiens, UniProt Q9NSI6)
assay_details: WDR9(2) DiscoverX BROMOscan
observable: Kd (µM)
Kindly provide the numeric value in µM only, without the unit symbol.

Please report the measured Kd for `CC(=O)Nc1c(F)cc(C(=O)N[C@H]2CC[C@H](O)CC2)cc1O[C@@H](C)c1ccccc1`
30

----------
assayed_system: Bromodomain and PHD finger-containing protein 3 (Homo sapiens, UniProt Q9ULD4)
Sequence (Q9ULD4 whole entry): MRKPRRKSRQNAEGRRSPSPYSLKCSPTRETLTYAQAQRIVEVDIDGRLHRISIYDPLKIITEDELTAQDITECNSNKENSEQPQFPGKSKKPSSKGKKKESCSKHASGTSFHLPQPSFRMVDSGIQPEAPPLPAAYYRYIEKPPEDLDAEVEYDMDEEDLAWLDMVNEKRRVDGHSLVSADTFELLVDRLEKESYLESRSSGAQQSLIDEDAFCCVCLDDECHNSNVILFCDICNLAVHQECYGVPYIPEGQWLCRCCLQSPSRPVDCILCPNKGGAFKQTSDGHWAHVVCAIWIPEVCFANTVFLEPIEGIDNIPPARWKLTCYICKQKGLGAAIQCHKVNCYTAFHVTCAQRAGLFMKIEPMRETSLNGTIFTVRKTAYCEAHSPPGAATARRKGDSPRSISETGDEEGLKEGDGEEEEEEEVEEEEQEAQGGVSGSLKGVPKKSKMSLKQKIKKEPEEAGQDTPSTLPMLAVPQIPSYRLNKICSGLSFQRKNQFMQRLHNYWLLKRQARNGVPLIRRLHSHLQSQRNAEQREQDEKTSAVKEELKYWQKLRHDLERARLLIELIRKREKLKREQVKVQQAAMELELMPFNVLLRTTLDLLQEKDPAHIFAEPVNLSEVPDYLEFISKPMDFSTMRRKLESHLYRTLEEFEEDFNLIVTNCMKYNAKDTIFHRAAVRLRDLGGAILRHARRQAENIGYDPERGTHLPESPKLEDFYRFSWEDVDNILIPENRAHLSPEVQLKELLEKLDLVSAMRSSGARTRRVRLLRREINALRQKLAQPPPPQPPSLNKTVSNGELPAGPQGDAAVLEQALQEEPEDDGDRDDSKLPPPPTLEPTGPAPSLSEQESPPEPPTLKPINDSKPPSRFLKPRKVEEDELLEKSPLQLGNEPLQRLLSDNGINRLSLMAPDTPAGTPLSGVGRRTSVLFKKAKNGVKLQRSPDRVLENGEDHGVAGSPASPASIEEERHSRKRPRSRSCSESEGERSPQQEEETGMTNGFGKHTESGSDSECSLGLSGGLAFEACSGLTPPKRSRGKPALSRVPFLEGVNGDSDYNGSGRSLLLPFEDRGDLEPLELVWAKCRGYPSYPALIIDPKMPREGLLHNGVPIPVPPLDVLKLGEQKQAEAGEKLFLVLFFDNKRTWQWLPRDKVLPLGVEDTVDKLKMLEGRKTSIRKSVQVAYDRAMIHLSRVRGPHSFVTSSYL
assay_details: BRPF3 DiscoverX BROMOscan
observable: pKd
Quick note: pKd values are minus log10 of concentrations in mol/L.

Answer with the recorded pKd of `CC(=O)Nc1c(F)cc(C(=O)N[C@H]2CC[C@H](O)CC2)cc1O[C@@H](C)c1ccccc1` only.
4.52

----------
assayed_system: 5-hydroxytryptamine receptor 2A (Homo sapiens, UniProt P28223)
Sequence (P28223 whole entry): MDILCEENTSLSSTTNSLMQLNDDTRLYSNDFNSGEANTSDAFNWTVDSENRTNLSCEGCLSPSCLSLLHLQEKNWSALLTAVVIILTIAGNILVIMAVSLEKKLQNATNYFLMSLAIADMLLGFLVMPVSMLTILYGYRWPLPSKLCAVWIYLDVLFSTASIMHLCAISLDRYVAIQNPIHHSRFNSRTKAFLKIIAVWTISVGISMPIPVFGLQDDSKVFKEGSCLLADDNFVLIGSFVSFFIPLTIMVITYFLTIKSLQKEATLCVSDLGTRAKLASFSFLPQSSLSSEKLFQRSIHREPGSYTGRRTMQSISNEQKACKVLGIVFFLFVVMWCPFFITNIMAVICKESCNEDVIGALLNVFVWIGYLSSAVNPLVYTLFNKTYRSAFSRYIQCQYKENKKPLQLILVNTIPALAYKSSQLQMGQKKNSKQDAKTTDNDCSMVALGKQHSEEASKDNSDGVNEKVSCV
assay_details: Cross screening panel
observable: EC50

// fetch EC50 given entry `CC(=O)Nc1c(F)cc(C(=O)N[C@H]2CC[C@H](O)CC2)cc1O[C@@H](C)c1ccccc1`
> 25.1 µM

----------
assayed_system: Acetylcholine receptor subunit alpha (Homo sapiens, UniProt P02708)
Sequence (P02708 whole entry): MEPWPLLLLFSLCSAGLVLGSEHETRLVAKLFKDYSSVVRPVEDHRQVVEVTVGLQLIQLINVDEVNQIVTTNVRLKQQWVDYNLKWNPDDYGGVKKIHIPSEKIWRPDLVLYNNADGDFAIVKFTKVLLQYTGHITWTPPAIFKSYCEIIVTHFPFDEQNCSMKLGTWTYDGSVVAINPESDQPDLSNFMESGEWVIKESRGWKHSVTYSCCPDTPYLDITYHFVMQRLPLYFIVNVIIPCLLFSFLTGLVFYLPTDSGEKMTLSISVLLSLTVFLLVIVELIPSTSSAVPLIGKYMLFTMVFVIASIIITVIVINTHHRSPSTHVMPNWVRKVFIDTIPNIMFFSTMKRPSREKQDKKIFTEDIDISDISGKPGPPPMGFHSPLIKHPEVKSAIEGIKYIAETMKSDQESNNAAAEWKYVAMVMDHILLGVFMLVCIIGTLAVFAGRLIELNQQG
assay_details: Cross screening panel
pEC50: −log10 of the molar value.
observable: pEC50

Please report pEC50 for the following molecule: CC(=O)Nc1c(F)cc(C(=O)N[C@H]2CC[C@H](O)CC2)cc1O[C@@H](C)c1ccccc1 [GSK046]
< 4.30

----------
assayed_system: Nuclear receptor subfamily 1 group I member 2 (Homo sapiens, UniProt O75469)
Sequence (O75469 whole entry): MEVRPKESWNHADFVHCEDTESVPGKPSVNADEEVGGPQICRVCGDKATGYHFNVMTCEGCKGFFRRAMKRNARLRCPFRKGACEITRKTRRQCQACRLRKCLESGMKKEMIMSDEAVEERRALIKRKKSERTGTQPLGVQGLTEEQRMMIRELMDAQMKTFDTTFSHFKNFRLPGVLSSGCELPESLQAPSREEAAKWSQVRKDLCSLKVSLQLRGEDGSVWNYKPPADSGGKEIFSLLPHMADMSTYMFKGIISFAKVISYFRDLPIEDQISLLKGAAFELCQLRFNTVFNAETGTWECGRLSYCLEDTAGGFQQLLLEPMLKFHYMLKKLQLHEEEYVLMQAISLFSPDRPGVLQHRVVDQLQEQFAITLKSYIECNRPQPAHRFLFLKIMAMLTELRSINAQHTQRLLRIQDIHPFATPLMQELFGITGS
assay_details: Cross screening panel
pEC50: −log10 of the molar value.
observable: pEC50

Lab note: Nuclear receptor subfamily 1 group I member 2 (Homo sapiens, UniProt O75469) assay, enter pEC50 for `CC(=O)Nc1c(F)cc(C(=O)N[C@H]2CC[C@H](O)CC2)cc1O[C@@H](C)c1ccccc1` here
< 4.30

----------
assayed_system: Aurora kinase B (Homo sapiens, UniProt Q96GD4)
pIC50: −log10 of the molar value.
observable: pIC50

For CC(=O)Nc1c(F)cc(C(=O)N[C@H]2CC[C@H](O)CC2)cc1O[C@@H](C)c1ccccc1 [GSK046] , write its pIC50.
< 4.50
